property-name: melting point

compound	melting point
O=C(/C=C/c1cccc(S(=O)(=O)Nc2cccc(F)c2)c1)NO	130 to 133 °C
COc1ccc(NS(=O)(=O)c2cccc(/C=C/C(=O)NO)c2)cc1	186 °C
O=C(CCCCS(=O)(=O)Nc1ccc2ccccc2c1)NO	163 to 164 °C
O=C(/C=C/c1ccc(S(=O)(=O)Nc2ccc(-c3ccccc3)cc2)cc1)NO	211 to 211.5 °C
O=C(CCCCS(=O)(=O)Nc1ccccc1)NO [PX117233, 5-(Anilinosulfonyl)-N-hydroxypentanamide]	128 to 129 °C

Now look at this entry.
Hello, please tell me recorded melting point for this one: CN(c1ccccc1)S(=O)(=O)CCCCCCCC(=O)NO
65.5 to 66.5 °C
